# test_description: qHTS RealTime-Glo MT Cell Viability Assay in HepG2 cells - 0 hour (AID 1224889); further: on the % scale 0 is the no-effect control and ±100 the full control effect; nearly all actives have a fitted effect of over 50% in size
# condition_context: RealTime-Glo luminescence; series mostly up to 76.8 µM
Records with an inconclusive call do not appear. The source made the active and inactive calls. The call rests on the fitted dose curve; in most records, active means well fitted cell-killing curve with a large enough effect in the repeat runs; inconclusive means weak or mixed curves, or effect the other way; inactive means flat fitted curve, though single readings scatter.
recorded_endpoint: activity change, negative = cytotoxicity

compound: CO[Si](C)(OC)c1ccccc1
value_observed: inactive

compound: CCCc1ncc(C[n+]2ccccc2C)c(N)n1
value_observed: inactive

compound: CCC(C)(CN(C)C)OC(=O)c1ccccc1 (configuration not stated)
value_observed: inactive

compound: CCCCc1ccc2c(n1)[C@@H](c1ccc(OC)cc1C[C@H](C)C(=O)O)[C@H](C(=O)O)[C@H]2c1ccc2c(c1)OCO2
value_observed: inactive

compound: Nc1ccncc1N
value_observed: inactive

activity change, negative = cytotoxicity reading for CNC(=O)Nc1ccc(Cl)c(Cl)c1 : inactive

activity change, negative = cytotoxicity reading for C=C(C)C(=O)OCC(O)CO (configuration not stated) : inactive

###

# test_description: qHTS assay to identify small molecule antagonists of the vitamin D receptor (VDR) signaling pathway - cell viability counter screen (AID 743225); further: on the % scale 0 is the no-effect control and ±100 the full control effect; nearly all actives have a fitted effect of over 50% in size
# condition_context: VDR-bla HEK293T viability, CellTiter-Glo luminescence, 16 h; series mostly up to 61 µM
Results filed as inconclusive are left out. Calls of active or inactive are those of the source. Calls follow the shape of the dose curve; as a rule, active = well fitted cell-killing curve with a large enough effect in the repeat runs; inconclusive = weak or mixed curves, or effect the other way; inactive = no such curve, though single readings can be large or run the other way.
recorded_endpoint: viability change, negative = cytotoxic

Field: example entries. Status: answers known.
compound: CC1=NN(c2cc(S(=O)(=O)O)ccc2Cl)C(=O)C1N=Nc1ccccc1 (stereo not drawn)
value_observed: inactive

compound: COc1ccccc1OCC1CNC(=O)O1 (stereo not drawn)
value_observed: inactive

compound: C=CCCCCCCCCC(=O)OCC
value_observed: inactive

compound: CCOC(=O)c1cnc2c(cnn2CC)c1NN=C(C)C
value_observed: inactive

compound: CNC(=O)Nc1ccc(Cl)c(Cl)c1
value_observed: inactive

Would you kindly look at the next entry?
viability change, negative = cytotoxic reading for CC(=O)O[C@@]12CO[C@@H]1C[C@H](O)[C@@]1(C)C(=O)[C@H](O)C3=C(C)[C@@H](OC(=O)[C@H](O)[C@@H](NC(=O)OC(C)(C)C)c4ccccc4)C[C@@](O)([C@@H](OC(=O)c4ccccc4)[C@H]21)C3(C)C : inactive

###

# experimental_target: Cytochrome P450 1A2 (Homo sapiens) (UniProt P05177)
# Sequence (P05177 whole entry, looked up): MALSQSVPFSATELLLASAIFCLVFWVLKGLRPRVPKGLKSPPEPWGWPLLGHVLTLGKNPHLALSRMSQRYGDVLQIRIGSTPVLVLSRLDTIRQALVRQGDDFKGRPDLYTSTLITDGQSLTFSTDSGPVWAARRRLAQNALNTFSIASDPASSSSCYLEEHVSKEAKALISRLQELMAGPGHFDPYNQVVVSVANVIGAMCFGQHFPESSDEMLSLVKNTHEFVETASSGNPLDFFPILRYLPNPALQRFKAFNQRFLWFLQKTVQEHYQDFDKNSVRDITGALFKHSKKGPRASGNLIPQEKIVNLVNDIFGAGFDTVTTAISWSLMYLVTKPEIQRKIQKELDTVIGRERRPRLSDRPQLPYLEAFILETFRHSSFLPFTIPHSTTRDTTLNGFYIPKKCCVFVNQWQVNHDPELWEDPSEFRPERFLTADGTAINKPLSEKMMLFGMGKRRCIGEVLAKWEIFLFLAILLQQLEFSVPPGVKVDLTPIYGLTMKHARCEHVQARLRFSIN
# test_description: Cytochrome P450 Family 1 Subfamily A Member 2 (CYP1A2) small molecule antagonists: luciferase reporter qHTS assay (AID 1671199); further: nearly all actives have a fitted effect of over 50% in size
# condition_context: P450-Glo CYP1A2 enzyme, luciferin luminescence, 1 h; series mostly up to 53 µM
Records with an inconclusive call do not appear. Calls of active or inactive are those of the source. Calls follow the shape of the dose curve; as a rule, active = well fitted inhibition curve with a large enough effect in the repeat runs; inconclusive = weak or mixed curves; inactive = no such curve, though single readings can be large or run the other way.
// one of Y for active, N for inactive, no free text

compound: CCCCc1nc(Cl)c(CO)n1Cc1ccc(-c2ccccc2-c2nn[nH]n2)cc1
label: N
--
compound: CC(C)(N)C#N
label: N
--
compound: CC(C)(C)OC(=O)c1cccc(N)c1
label: Y
--
compound: Nc1ccncc1N
label: N

Query: Status in this test for CC(COc1ccccc1)NN (configuration not stated) ?
Result: N

Query: Status in this test for COc1cc2c(cc1OC)-c1cc3ccc(OC)c(OC)c3c[n+]1CC2 ?
Result: Y

Query: Status in this test for CN(C)C(=O)Oc1cccc([N+](C)(C)C)c1 ?
Result: N

Query: Status in this test for C[N+]1(C)[C@@H]2CC(OC(=O)[C@H](CO)c3ccccc3)C[C@H]1[C@@H]1O[C@@H]12 (some centres not stated) ?
Result: N

Query: Status in this test for CCOC(=O)COc1cc(-n2ncc(C(F)(F)F)c(C)c2=O)c(F)cc1Cl ?
Result: Y

Query: Status in this test for CN(C)C(=O)Oc1ccc[n+](C)c1 ?
Result: N

Query: Status in this test for O=C1c2ccccc2C(=O)c2cc(O)ccc21 ?
Result: Y

Query: Status in this test for COc1cccc(OC)c1C(=O)N[C@@H]1C(=O)N2[C@@H]1SC(C)(C)[C@@H]2C(=O)O ?
Result: N

###

# test_description: qHTS assay to identify small molecule antagonists of the peroxisome proliferator-activated receptor delta (PPARd) signaling pathway - cell viability counter screen (AID 743213); further: on the % scale 0 is the no-effect control and ±100 the full control effect; nearly all actives have a fitted effect of over 50% in size
# condition_context: PPARd-bla HEK293H viability, CellTiter-Glo luminescence, 17 h; series mostly up to 62 µM
# Source text: U.S. Tox21 Program National Center for Advancing Translational Sciences [NCATS] NIH Chemical Genomics Center [NCGC] U.S. Environmental Protection Agency [EPA] National Institutes of Environmental Health Sciences [NIEHS] National Toxicology Program [NTP] U.S. Food and Drug Administration [FDA] […]
Results filed as inconclusive are left out. The source made the active and inactive calls. Calls follow the shape of the dose curve; as a rule, active = well fitted cell-killing curve with a large enough effect in the repeat runs; inconclusive = weak or mixed curves; inactive = no such curve, though single readings can be large or run the other way.

compound: CC[N+](C)(CC)CCOC(=O)C1c2ccccc2Oc2ccccc21
viability change, negative = cytotoxic: inactive
//
compound: COc1c(N2CCNC(C)C2)c(F)cc2c(=O)c(C(=O)O)cn(C3CC3)c12 (centres undefined)
viability change, negative = cytotoxic: inactive
//
compound: O=C1c2ccccc2C(=O)c2cc(O)ccc21
viability change, negative = cytotoxic: inactive
//
compound: Cc1ccc(C(=O)Nc2ccc(S(=O)(=O)O)c3cc(S(=O)(=O)O)cc(S(=O)(=O)O)c23)cc1NC(=O)c1cccc(NC(=O)Nc2cccc(C(=O)Nc3cc(C(=O)Nc4ccc(S(=O)(=O)O)c5cc(S(=O)(=O)O)cc(S(=O)(=O)O)c45)ccc3C)c2)c1
viability change, negative = cytotoxic: inactive

###

# experimental_target: Estrogen receptor beta (Homo sapiens)
# test_description: qHTS assay to identify small molecule agonists of the estrogen receptor beta (ER-beta) signaling pathway (AID 1259377); further: on the % scale 0 is the no-effect control and ±100 the full control effect
# condition_context: ER-beta-UAS-bla HEK293T, beta-lactamase FRET ratio, 16 h; series mostly up to 92.4 µM
Results filed as inconclusive are left out. The source made the active and inactive calls. Calls come from the whole dose curve; as a rule, active = well fitted activation curve with a large enough effect in the signal ratio in the repeat runs (not every such curve was filed as active); inconclusive = weak or mixed curves, or effect the other way; inactive = flat fitted curve, though single readings scatter; the % refers to the signal ratio.
recorded_endpoint: activation

molecule: Cc1ccc(-c2ncc(Cl)cc2-c2ccc(S(C)(=O)=O)cc2)cn1
experimental_target: Estrogen receptor beta (Homo sapiens)
value_observed: inactive
--
molecule: COCCOCC(OC)OC
experimental_target: Estrogen receptor beta (Homo sapiens)
value_observed: inactive
--
molecule: CC1=C(C/C=C(\C)CCC[C@H](C)CCC[C@H](C)CCCC(C)C)C(=O)c2ccccc2C1=O
experimental_target: Estrogen receptor beta (Homo sapiens)
value_observed: inactive
--
molecule: C=CC(C)(CCC=C(C)C)OC(=O)CC (configuration not stated)
experimental_target: Estrogen receptor beta (Homo sapiens)
value_observed: inactive
--
molecule: Nc1ccn([C@@H]2O[C@H](CO)[C@@H](O)C2(F)F)c(=O)n1
experimental_target: Estrogen receptor beta (Homo sapiens)
value_observed: inactive
--
molecule: CC(C)(N)C#N
experimental_target: Estrogen receptor beta (Homo sapiens)
value_observed: inactive
--
molecule: c1ccc2sc(SN3CCOCC3)nc2c1
experimental_target: Estrogen receptor beta (Homo sapiens)
value_observed: inactive
--
molecule: CC1=NN(c2cc(S(=O)(=O)O)ccc2Cl)C(=O)C1N=Nc1ccccc1 (configuration not stated)
experimental_target: Estrogen receptor beta (Homo sapiens)
value_observed: inactive
--
molecule: Cc1ccc(C(=O)c2ccccc2)cc1
experimental_target: Estrogen receptor beta (Homo sapiens)
value_observed: inactive
--
molecule: CCOC(=O)OC(C)OC1=C(C(=O)Nc2ccccn2)N(C)S(=O)(=O)c2ccccc21 (configuration not stated)
experimental_target: Estrogen receptor beta (Homo sapiens)
value_observed: inactive

activation reading for CCCCCCCC1CCCC1=O (configuration not stated) : inactive

activation reading for O=C(CO)[C@@H](O)[C@H](O)[C@@H](O)CO : inactive

###

# experimental_target: Voltage-gated inwardly rectifying potassium channel KCNH2 (Homo sapiens) (UniProt Q12809)
# Sequence (Q12809 whole entry, looked up): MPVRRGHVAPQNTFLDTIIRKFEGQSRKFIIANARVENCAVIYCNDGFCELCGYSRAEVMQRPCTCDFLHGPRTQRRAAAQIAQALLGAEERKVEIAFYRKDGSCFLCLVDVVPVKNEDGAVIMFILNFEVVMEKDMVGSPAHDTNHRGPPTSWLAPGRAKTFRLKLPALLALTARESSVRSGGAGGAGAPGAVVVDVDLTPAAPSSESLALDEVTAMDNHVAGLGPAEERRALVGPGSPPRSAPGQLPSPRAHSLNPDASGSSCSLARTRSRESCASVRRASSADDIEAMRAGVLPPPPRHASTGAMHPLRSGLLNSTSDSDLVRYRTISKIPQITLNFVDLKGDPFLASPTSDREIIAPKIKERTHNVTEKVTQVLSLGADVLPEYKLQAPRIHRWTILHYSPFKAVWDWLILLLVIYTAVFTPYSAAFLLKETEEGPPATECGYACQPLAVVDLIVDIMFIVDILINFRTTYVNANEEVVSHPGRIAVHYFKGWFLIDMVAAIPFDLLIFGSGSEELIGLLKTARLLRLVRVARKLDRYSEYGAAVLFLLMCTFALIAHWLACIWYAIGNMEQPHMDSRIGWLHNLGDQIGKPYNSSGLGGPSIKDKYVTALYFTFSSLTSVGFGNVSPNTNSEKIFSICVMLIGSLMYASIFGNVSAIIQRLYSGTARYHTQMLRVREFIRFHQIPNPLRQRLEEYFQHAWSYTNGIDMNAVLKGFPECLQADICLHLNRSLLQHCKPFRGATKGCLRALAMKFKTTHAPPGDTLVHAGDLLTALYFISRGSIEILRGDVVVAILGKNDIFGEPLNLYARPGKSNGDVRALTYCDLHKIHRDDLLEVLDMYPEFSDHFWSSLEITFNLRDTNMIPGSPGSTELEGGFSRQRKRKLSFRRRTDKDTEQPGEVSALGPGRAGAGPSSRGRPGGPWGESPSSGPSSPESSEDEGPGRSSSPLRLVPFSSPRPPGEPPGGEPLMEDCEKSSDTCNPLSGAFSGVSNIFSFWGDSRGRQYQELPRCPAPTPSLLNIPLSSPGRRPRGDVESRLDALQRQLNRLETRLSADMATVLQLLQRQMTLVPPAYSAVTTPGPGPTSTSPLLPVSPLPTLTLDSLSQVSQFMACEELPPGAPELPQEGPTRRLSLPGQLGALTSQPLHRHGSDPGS
# test_description: Human Ether-a-go-go-Related Gene (hERG) channel small molecule antagonists: fluorescence cell-based qHTS assay (AID 1671200)
# condition_context: hERG-U2OS cells, FluxOR thallium flux fluorescence; series mostly up to 76.8 µM
Inconclusive results are not listed. Calls of active or inactive are those of the source. Calls come from the whole dose curve; as a rule, active = well fitted inhibition curve with a large enough effect in the repeat runs; inconclusive = weak or mixed curves; inactive = flat fitted curve, though single readings scatter.
recorded_endpoint: activity change, negative = inhibition

Field: example entries. Status: answers known.
molecule: COc1c(N2CCNC(C)C2)c(F)cc2c(=O)c(C(=O)O)cn(C3CC3)c12 (configuration not stated)
activity change, negative = inhibition: inactive
//
molecule: CCCc1ncc(C[n+]2ccccc2C)c(N)n1
activity change, negative = inhibition: inactive
//
molecule: c1ccc(Cc2ccccc2)cc1
activity change, negative = inhibition: inactive
//
molecule: C=CCOCC(O)CO (configuration not stated)
activity change, negative = inhibition: inactive
//
molecule: O=C1NC(=O)C2CC=CCC12 (configuration not stated)
activity change, negative = inhibition: inactive

activity change, negative = inhibition reading for Cc1c(N)c(=O)n(-c2ccccc2)n1C : inactive

activity change, negative = inhibition reading for CN(C)CCCN(C)CCCN(C)C : inactive

activity change, negative = inhibition reading for CCC1C(=O)OCC1Cc1cncn1C (configuration not stated) : inactive

activity change, negative = inhibition reading for Cc1ccc(C(=O)c2ccc(CC(=O)O)n2C)cc1 : inactive

activity change, negative = inhibition reading for Clc1cc(Cl)cc(Cl)c1 : inactive

activity change, negative = inhibition reading for O=C(O)Cc1csc(-c2ccc(Cl)cc2)n1 : inactive

activity change, negative = inhibition reading for C[N+]1(CC2COC(c3ccccc3)(c3ccccc3)O2)CCCCC1 (configuration not stated) : -15.6% [at 15.8 µM] (inactive)

Each recorded value in this set is attributed to PubChem BioAssay (Tox21).
